test system: RARg:RXRa (NR concentration 270 nM, RXRa partner concentration 90 nM); experiment: PBM binding z-score (relative to random genomic background probes); higher = stronger binding; sequences stand for … in GC…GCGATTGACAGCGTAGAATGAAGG
Metric: PBM binding z-score
Answers are plain numbers.

# count of solved cases: 5
> print(dat)
                  biopolymer.sequence                             tested.target  value.measured
1  ACTCGGAGGACAACGGTCAGAGCTACGCCAGTGA  RARg:RXRa (NR concentration 270 nM, RXRa partner concentration 90 nM)            1.06
2  CTCGAAAGGTCGGTTGAGGTGAGGATACGGATAA  RARg:RXRa (NR concentration 270 nM, RXRa partner concentration 90 nM)            3.23
3  AGAAAGAGGGCACGCTGAGTTGATAGCAGAGTAG  RARg:RXRa (NR concentration 270 nM, RXRa partner concentration 90 nM)             2.5
4  GCTGCTAGGTCACGTTGGTCAGCTAACGGGTACG  RARg:RXRa (NR concentration 270 nM, RXRa partner concentration 90 nM)            4.37
5  TAGCCTAGGTCAGATTGGGCCAGTATACGCTATA  RARg:RXRa (NR concentration 270 nM, RXRa partner concentration 90 nM)            2.79

Next up:
Record `ACTAGCAGGCCAAGTTTGTGTCACTCAAACAAAG` . Reported PBM binding z-score: 0.00878

* * *

system: PPARg:RXRa 90nM:30nM, anti-RXR (NR concentration 90 nM, RXRa partner concentration 30 nM); test: PBM binding z-score (relative to random genomic background probes); higher = stronger binding; sequences stand for … in GC…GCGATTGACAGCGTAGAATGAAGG
Label rule, in plain words: PBM binding z-score of 4 and up is YES, under 4 is NO.

Reference set (5 entries):
> print(dat)
                  biopolymer.sequence  assigned.class
1  CATACAGGGTCAGCCAGGCCAGAGTAGGGACGGC              NO
2  CGTTACGGGTCAAGGTTATAGCACGGGTGGTACG              NO
3  CCTAGCAGGCCAATCTGGGTCACTCGAGGCTTGA              NO
4  GCGACTGGGGCATCAGAAGGTTACCATAACTTAA              NO
5  CCTTACGGGTCACGAGGTTATAGCGCGACGAGCG             YES

Lookup: Does PBM binding z-score meet or surpass 4 for `TAGCCTAGGTCATGGGCCATTATACCACGCGAAC` ?
Found: NO

Lookup: Has `CCTATTCGTTGACCATAAGGGCAACCGAAGCTCG` a recorded PBM binding z-score greater than or equal to 4?
Found: NO

Lookup: Is it the case that `CAACCTAGGTCAGGGCCAGTATAGGAGGAACGTT` has PBM binding z-score reaching or exceeding 4?
Found: NO

Lookup: Please check the record `ATCGAAAGTTCGACGAGGTGAGTATACACCGTTT` and state if its PBM binding z-score is at or above 4.
Found: NO

Lookup: Test whether the sequence `CGAACTAGGTCATCCAGGACAGTGATTACATTGA` records PBM binding z-score of 4 or higher.
Found: YES

* * *

Answer each item with its documented PBM binding z-score.
test system: LXRb:RXRa (NR concentration 270 nM, RXRa partner concentration 90 nM); assay: PBM binding z-score (relative to random genomic background probes); higher = stronger binding; sequences stand for … in GC…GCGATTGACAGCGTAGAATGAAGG
One number for each entry.

Study these solved cases before continuing.
> print(dat)
                  biopolymer.sequence               metric  value.measured
1  TCTGCTAGGGCAACGATGGTCAGCTAATCTGCTA  PBM binding z-score           -0.55
2  CATACAGGGTCAGGTAGGCCAGAGTAGGGACGGC  PBM binding z-score            2.21
3  ATTAGTTGGTCAGCTGAGGTCACACACAATTCGG  PBM binding z-score            3.95

// each sequence listed below needs its PBM binding z-score
1. ATGGAAAGGTCGACGAGGTGAGTATACACCGTTT
2. AGAATGAGGTTATACGTAGATCAGGTAAGAAAGT

Found:
1: 2.47; 2: 1.72

* * *

Record form. Attribute: PBM binding z-score. Fill in for each entry.
tested on: PXR:RXRa (NR concentration 270 nM, RXRa partner concentration 90 nM); experiment: PBM binding z-score (relative to random genomic background probes); higher = stronger binding; sequences stand for … in GC…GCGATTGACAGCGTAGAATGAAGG
Numbers only.

Worked examples, 4 sequences total:
> print(dat)
                  biopolymer.sequence  value.measured
1  CCTACTGGGCCTTTCAGAGGTCATTGATCATATG            4.68
2  GCTTGTAGATCAAGGTCAAGAAAGACTAAGCTAA            2.63
3  CCAGACAGGTGAAAGGTAATTCAGTCTGGTACGC           0.676
4  TCATATAGGTAAAAGGTGTAAGTCGGTGTGGTAA           0.588

Would you be so kind as to report PBM binding z-score for each listed record?
1. CCTTACGGGTCACTCCAGGTTATTGCATCGGAGT
2. CCGACTGGGGCAAAGTTTACCATACTCAGTACGA
3. GCTAGCAGGCCATTTGGGTCACACAATGACGGGC

Found:
[5.46, 0.182, 0.906]

Each of the following entries comes with a recorded value; kindly state PBM binding z-score for each.
1. TCCTATAGGTAAAAGGTGAAAGTCGGTGTGGTAA
2. GATACAGGGCCAGCTAGAGGCCAGAGTATGGAAA
3. GGAACGAGGGCATTGGAGTTGATAGCATGGCGAT
4. GCATATAGGTAATCCAAGGTGAAAGTCCGATTGT
5. TGAATGAGGTTAAAGATGAGGGAACGTGGCGTCG
6. CCTTACGGCTCACTCCAGGTTATAGCATCGGAGT
7. ATCGAACGGTCGAAGGTGAGTATACCCACCCGAA
8. ATCTCTAGGTACCAAGTTCAGTGAAAGAGAGGAC

Found:
1. 1.66
2. -0.72
3. 2.48
4. 0.638
5. 1.49
6. -0.0761
7. -0.254
8. 1.42

For the 2 sequences below, give their PBM binding z-score values.
1. TCTCGGAGGACACGAAGGTCAGAGCCTTCCAGAG
2. CCTCGGAGGACAGGAGGTCAGAGCTGTCCGCTTT

Found:
1: 2.11; 2: 1.81

For the 2 sequences below, give their PBM binding z-score values.
1. TTACCAAGCTGAGCTGAGGTCGTTGATCCAACTC
2. CGCCCAAGGTCAGAGAGGTCAGTGAATGCCGAGT

Found:
1: 1.06; 2: 5.86

Please look at the items below and tell me PBM binding z-score for each one, in order.
1. ATCTCTAGGTAACGAAGTTCAGTGAATGCCGAAC
2. ATACCAAGGTGATCGTCAGGTCGTTGATACTAAC
3. TCTAGCAGGCCAGAGGGTCACGCAAGAGGTACGG
4. ACATACGGGTCAACGAGGTTATAGCACGCGTATA

Found:
1.14
1.24
2.62
5.01

* * *

system: LXRb:RXRa (NR concentration 270 nM, RXRa partner concentration 90 nM); assay: PBM binding z-score (relative to random genomic background probes); higher = stronger binding; sequences stand for … in GC…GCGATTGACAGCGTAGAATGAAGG
Exercise: for every item that follows, state its recorded PBM binding z-score.

Record excerpt, results attached:
> print(dat)
                  biopolymer.sequence               metric  value.measured
1  CCTACTGGGCCAAAGGTCATCGATTCCAATGCTC  PBM binding z-score            4.41
2  ATACCAAGATGATCGTGAGGTCGTTGATACTAAC  PBM binding z-score           0.892
3  GTTAGTTGGTCAGTAAAAGGTCACACACCGGTCG  PBM binding z-score            3.94

Each sequence below has a reported value. Please supply its PBM binding z-score.
1. CCTAGTTGGTAAAGGTCACACACGCTATAGGTAC
2. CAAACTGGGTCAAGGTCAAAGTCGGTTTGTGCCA
3. CCTAGCAGGCCATGGTCACTCAAGCATTTCGCTT

Found:
1: 5.64; 2: 4.41; 3: -0.307
